Where these numbers come from: patent US20240116985A1

TEST_TARGET: full-length beta-Catenin (Uniprot ID P35222) (Homo sapiens (Human)) (UniProt P35222)
Sequence (P35222 2-781 limits assumed): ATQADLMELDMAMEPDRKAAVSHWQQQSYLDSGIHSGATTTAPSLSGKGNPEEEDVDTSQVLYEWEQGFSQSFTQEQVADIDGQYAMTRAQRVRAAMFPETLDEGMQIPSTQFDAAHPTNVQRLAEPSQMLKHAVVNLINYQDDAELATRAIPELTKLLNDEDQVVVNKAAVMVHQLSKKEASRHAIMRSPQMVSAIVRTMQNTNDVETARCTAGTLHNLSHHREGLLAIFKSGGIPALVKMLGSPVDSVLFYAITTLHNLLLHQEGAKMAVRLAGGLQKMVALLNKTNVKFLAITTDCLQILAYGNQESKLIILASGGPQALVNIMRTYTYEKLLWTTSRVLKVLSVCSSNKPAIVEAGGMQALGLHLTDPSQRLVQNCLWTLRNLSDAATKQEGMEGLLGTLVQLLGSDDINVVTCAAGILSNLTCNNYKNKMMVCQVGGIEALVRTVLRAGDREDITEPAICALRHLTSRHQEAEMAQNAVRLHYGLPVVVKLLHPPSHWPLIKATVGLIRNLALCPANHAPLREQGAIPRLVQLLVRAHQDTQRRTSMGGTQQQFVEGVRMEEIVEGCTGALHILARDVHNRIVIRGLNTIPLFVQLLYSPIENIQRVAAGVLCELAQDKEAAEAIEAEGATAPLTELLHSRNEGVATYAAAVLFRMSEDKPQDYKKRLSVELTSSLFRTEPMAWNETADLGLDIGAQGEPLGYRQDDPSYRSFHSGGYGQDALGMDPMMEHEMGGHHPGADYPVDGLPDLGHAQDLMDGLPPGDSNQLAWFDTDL
PROTOCOL_NOTES: fluorescence polarization competition, displacement of 5FAM-TCF4 10-53 from full-length beta-catenin
Starred links: 1 amine or outer side, 2 acyl side, 3 side chain; linkers in the order of their positions; H or OH if unused. Positions of bridges follow the written chain, without caps; N, C: chain ends. Non-standard residues stand in square brackets, D forms with d. Primed or numbered codes have the meaning given here. PyrS2(3) = (S)-3-amino-1-((pent-4-en-1-yloxy)carbonyl)pyrrolidine-3-carboxylic acid, stapling residue, C=CCCCOC(=O)N1CC[C@@](N[*:1])(C(=O)[*:2])C1; PyrS2″ = (S)-3-amino-1-((pent-4-en-1-yloxy)carbonyl)pyrrolidine-3-carboxylic acid (stapling residue), C=CCCCOC(=O)N1CC[C@@](N[*:1])(C(=O)[*:2])C1; B5(4) = 2,2-bis(4-pentenyl)glycine = 2-amino-2-(pent-4-en-1-yl)hept-6-enoic acid (stitching residue), C=CCCCC(CCCC=C)(N[*:1])C(=O)[*:2]; B5(21) = 2-amino-2-(pent-4-en-1-yl)hept-6-enoic acid, bis(4-pentenyl)glycine (stitching residue), C=CCCCC(CCCC=C)(N[*:1])C(=O)[*:2]; 4TriA = (S)-2-amino-3-(1H-1,2,3-triazol-4-yl)propanoic acid, O=C([C@H](Cc1c[nH]nn1)N[*:1])[*:2]; B5″ = 2,2-bis(4-pentenyl)glycine, stitching residue, C=CCCCC(CCCC=C)(N[*:1])C(=O)[*:2]; Phe(2-Cl) = N[C@@H](Cc1ccccc1Cl)C(=O)O; Bta = N[C@@H](Cc1csc2ccccc12)C(=O)O; αAllylPro = C=CC[C@@]1(C(=O)O)CCCN1; tBuAla = CC(C)(C)C[C@H](N)C(=O)O; 3Thi = N[C@@H](Cc1ccsc1)C(=O)O; S8 = C=CCCCCCC[C@](C)(N)C(=O)O; R5 = C=CCCC[C@@](C)(N)C(=O)O; hSer = N[C@@H](CCO)C(=O)O; Aib = CC(C)(N)C(=O)O
Simple rule here: IC50 less than 90 nM is class 1, otherwise class 0.

# count of solved cases: 9
1. Ac-[αAllylPro]D[tBuAla][B5(4)]DDAAFL[S8][3Thi][Bta]T-NH2 (staple 1-4, 4-11) [I-1191] = class 1
2. Ac-[αAllylPro]D[tBuAla][B5(4)]DDAAFL[S8][Phe(2-Cl)][Bta]H-NH2 (staple 1-4, 4-11) [I-1194] = class 1
3. Ac-[αAllylPro]D[tBuAla][B5(4)]DDAAFL[S8][3Thi][Bta][4TriA]-NH2 (staple 1-4, 4-11) [I-1193] = class 1
4. Ac-[αAllylPro]D[tBuAla][B5(21)]DD[Aib][Aib]FL[PyrS2″][3Thi][Bta]Q-NH2 (staple 1-4, 4-11; also: later eluting HPLC peak (staple isomer composition)) [I-1180] = class 1
5. Ac-PD[tBuAla][R5]DDAAFN[PyrS2″][3Thi][Bta]Q-NH2 (staple 4-11) [I-1182] = class 0
6. Ac-PD[tBuAla][R5]DDAAFL[PyrS2(3)][3Thi][Bta]Q-NH2 (staple 4-11) [I-1181] = class 0
7. Ac-[αAllylPro]D[tBuAla][B5″]DDAAFL[S8][3Thi][Bta]H-NH2 (staple 1-4, 4-11) [I-1195] = class 1
8. Ac-[αAllylPro]D[tBuAla][B5(4)]DDAAFL[S8][Phe(2-Cl)][Bta][4TriA]-NH2 (staple 1-4, 4-11) [I-1192] = class 1
9. Ac-[αAllylPro]D[tBuAla][B5(4)]DDAAFL[S8][Phe(2-Cl)][Bta]S-NH2 (staple 1-4, 4-11) [I-1189] = class 0

Decide: IC50 of Ac-[αAllylPro]D[tBuAla][B5(4)]DDAAFL[S8][Phe(2-Cl)][Bta][hSer]-NH2 (staple 1-4, 4-11) [I-1196] strictly below 90 nM? class 1
